Target: T1, CD27 expressed on the cell surface of HT1080_CD27 cells (human, UniProt P26842 20-260); further: test concentration or dose not given here
T1 sequence (looked up): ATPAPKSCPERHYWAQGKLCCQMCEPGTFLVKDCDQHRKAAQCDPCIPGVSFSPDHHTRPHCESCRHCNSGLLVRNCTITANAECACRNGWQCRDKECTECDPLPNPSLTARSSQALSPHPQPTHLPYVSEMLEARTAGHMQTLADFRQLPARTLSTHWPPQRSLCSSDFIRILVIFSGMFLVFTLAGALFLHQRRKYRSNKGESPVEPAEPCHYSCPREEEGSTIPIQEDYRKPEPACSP
Test: cell-based or functional assay
List of Functional assay Cross-linked by F(ab′)2 fragment IL-8 values.

Example entries and their recorded answers appear below.
1. P018.S.10.A.C01 (antibody, V domains shown, V regions on human Ig constant parts; also called AB27_170) VH: QSVEESGGRLVTPGTPLTLTCTLSGFSLSNYAMSWVRQAPGKGLEWIGVIYTSGTTHYASWAKGRFTISKTSTTVDLRMTSLTTEDTATYFCARSRYYGSGWGGYYFNLWGQGTLVTVSS VL: DVVMTQTPSPVSAAVGGTVTINCQASEDIYSLLAWYQQKPGQRPKLLIYGASNLESGVPSRFKGSGSGTEYTLTISGVQSADAATYYCHGGTYTGSADINAFGGGTEVVVE; 1.1 abs. corr.
2. P018.S.10.A.B02 (antibody, V domains shown, V regions on human Ig constant parts; also called AB27_167) VH: QSVEESGGRLVTPGGSLTLSCTVNGFSLSSHGVSWVRQAPGKGLEWIGIIYVISGHAYYASWAKGRFTISKTSTTVDLKIASPTTEDTATYFCARGNYGSDSGPNFTRLDLWGQGTLVTVSS VL: AQVLTQTPSPVSATVGGTLTINCQASQSLYNNDYLAWYQQKPGQPPKLLIYLASTLASGVSSRFKGSGSGTQFTLTISGVQSDDAATYYCQGEFSCSSGDCLAFGGGTEVVVK; 1.91 abs. corr.

Lab note: next binder to report on.
Prompt: Sample P018.S.05.A.D06 (antibody, V domains shown, V regions on human Ig constant parts; also called AB27_88) VH: QSVEESGGRLVTPGTPLTLTCTVSGFSLSSYWMSWVRQAPGKGLEWIGFIYGGSGDKYYASWAKGRFAISKTSTTVDLKITSPTTEDTATYFCARGGDGDGTYSSLWGQGTLVTVSS VL: AQVLTQTPSPVSAAVGGTVTISCQSSESVAGKNLAWYQQKPGQPPKVLIYGTSNLASRVPSRFRGSGSGTQFTLTISDLESDDAATYYCQGYYSGGIYGFGGGTEVVVE — what was its Functional assay Cross-linked by F(ab′)2 fragment IL-8?
Response: 1.23 abs. corr.
